- Test system: SN12C renal
- METHOD: NCI tumour cell line growth inhibition, 48 h
Each item that follows carries a reported TGI.

Solved entries (count: 5):
compound="CN1C(=O)N(C)C2(CCN(CC(CC3OCCO3)c3ccc(F)cc3)CC2)C1=O (stereo unspecified)" assay_value="> 100 µM"
compound=CN(C)c1ccc(/C=C/C(=O)c2cc(C(C)(C)C)c(O)c(C(C)(C)C)c2)cc1 assay_value="> 38.7 µM"
compound=CN(C)c1ccc(C(=S)c2ccc(N(C)C)cc2)cc1 assay_value="> 100 µM"
compound="CCN(CC)CC1CCCCN1CC(=O)N1c2cc(Cl)ccc2NC(=O)CC1C (stereo unspecified)" assay_value="> 100 µM"
compound=CN(C)CCCNC(=O)N/N=C/c1ccc(O)cc1 assay_value="> 100 µM"

Below: the item to evaluate.
Tell me TGI reported for `CC(=O)OCCOCn1c2ccccc2c2c3c(c4c5ccccc5n(COCCOC(C)=O)c4c21)C(=O)N(Cc1ccccc1)C3=O`
> 100 µM

----------
- Test system: LXFL 529 NSCLC
- METHOD: NCI tumour cell line growth inhibition, 48 h
EXPERIMENTAL ENDPOINT: TGI

smi=CCOC(=O)/C=C/n1c2ccccc2c(=O)c2cc(OC)ccc21 experimental_endpoint=TGI assay_value="> 100 µM"
smi=C[N+]1=C(c2cccnc2/C=N/O)OCC1(C)C experimental_endpoint=TGI assay_value="> 100 µM"

Below: the item to evaluate.
Tell me TGI reported for `Oc1ccc(-c2c3ccccc3c(-c3ccc(O)cc3)c3ccccc23)cc1`
> 100 µM

----------
- System: HS 578T breast
- METHOD: NCI tumour cell line growth inhibition, 48 h
EXPERIMENTAL ENDPOINT: GI50

smi=CCOC(=O)/C(=C/CC/C(C)=C/CC/C(C)=C/CCc1ccoc1)CC(=O)N1CCCCC1 assay_value="5.07 µM"

Tell me GI50 reported for `Cc1cc(F)c(C(=O)Nc2cccc(-c3nncn3C(C)C)n2)cc1-n1cnc(C2CC2)c1`
26.6 µM

Tell me GI50 reported for `C1=N[C@]23C(=N[C@H](N=C2NCc2ccco2)[C@]24N=CNC2=N[C@H]3N=C4NCc2ccco2)N1`
39.1 µM

----------
- Tested on: HS 578T breast
- METHOD: NCI tumour cell line growth inhibition, 48 h
Each item that follows carries a reported TGI.

compound=COc1ccc2c(c1)CC[C@@H]1[C@@H]2CC[C@]2(C)/C(=N/OCCN3CCCC3)CC[C@@H]12 assay_value="7.29 µM"
compound=O=C(O)c1cc2ccccc2c(Cc2c(O)c(C(=O)O)cc3ccccc23)c1O assay_value="> 100 µM"
compound="Nc1nc(=O)n(C2CC(O)C(CO)O2)cc1F (centres undefined)" assay_value="> 100 µM"

Below: the item to evaluate.
Tell me TGI reported for `OCC#CCOCC#Cc1ccccc1C#CCOCC#CCO`
> 100 µM

----------
- Tested on: SR leukemia
- METHOD: NCI tumour cell line growth inhibition, 48 h
EXPERIMENTAL ENDPOINT: GI50

Tell me GI50 reported for `COc1ccccc1-n1cnc(N)c1C(=O)c1cc(OC)c(OC)c(OC)c1`
1.92 µM

Tell me GI50 reported for `O=C(NC1CCN(Cc2ccccc2)CC1)c1cc(-c2cccnc2)nc2ccc(Cl)cc12`
2.71 µM

Tell me GI50 reported for `COc1ccc(-n2cc(-c3cc(OC)c(OC)c(OC)c3)nc2SCc2ccc(Cl)cc2)cc1OC`
> 100 µM

Tell me GI50 reported for `CCOC(=O)/C(=C/CC/C(C)=C/CC/C(C)=C/CCc1ccoc1)CC(=O)N1CCCCC1`
3.11 µM
